Item-by-item account of IC50
# MEASURED_ON: human D2R/β-arrestin (Homo sapiens (Human))
# ASSAY_INFO: cell-based
# CONDITION: cAMP Antagonist, CHO-K1 cell line expressing human D2R/β-arrestin; quinpirole used as agonist

molecule="O=C(NC(c1ccc2c(c1)OC(F)(F)O2)c1ccccn1)C1CCN(CCOc2ccc(F)cc2F)CC1 (single isomer, unassigned) [Compound 130b]" result="> 30 µM"

[in] // returns reported IC50 for input O=C(NC(c1ccc(Cl)cc1)c1ccc(F)cn1)C1CCN(CCOc2ccccc2F)CC1 (stereo not shown) [Compound 92]
[out] 0.1 to 1 µM

[in] // query: COc1cccc(C(NCC2CCN(CCOc3ccccc3)CC2)c2ccccn2)c1 (stereo not shown) [Compound 80]
[out] 1 to 10 µM

[in] Continue with c1ccc(OCCN2CCC(CNC(c3ccc4c(c3)OCO4)c3ccccn3)CC2)cc1 (single isomer, unassigned) [Compound 102a]
[out] 1 to 10 µM

[in] Next entry: O=C(NC(c1ccc(F)cc1)c1ccc(Cl)cc1)C1CCN(CCOc2ccccc2)CC1 (stereo not shown) [Compound 42]
[out] 0.1 to 1 µM

[in] Try this molecule next: O=C(NC(c1ccccc1)c1ccccn1)C1CCN(CCOc2ccccc2)CC1 (stereo not shown) [Compound 113]
[out] > 30 µM

[in] Note, next up: O=C(NC(c1ccc(Cl)cc1)c1cccc(F)c1)C1CCN(CCOc2ccccc2)CC1 (stereo not shown) [Compound 41]
[out] 0.1 to 1 µM

* * *

A collection of molecules and their measured pIC50
# MEASURED_ON: human D2R/β-arrestin (Homo sapiens (Human), UniProt P14416)
# Sequence (P14416 whole entry): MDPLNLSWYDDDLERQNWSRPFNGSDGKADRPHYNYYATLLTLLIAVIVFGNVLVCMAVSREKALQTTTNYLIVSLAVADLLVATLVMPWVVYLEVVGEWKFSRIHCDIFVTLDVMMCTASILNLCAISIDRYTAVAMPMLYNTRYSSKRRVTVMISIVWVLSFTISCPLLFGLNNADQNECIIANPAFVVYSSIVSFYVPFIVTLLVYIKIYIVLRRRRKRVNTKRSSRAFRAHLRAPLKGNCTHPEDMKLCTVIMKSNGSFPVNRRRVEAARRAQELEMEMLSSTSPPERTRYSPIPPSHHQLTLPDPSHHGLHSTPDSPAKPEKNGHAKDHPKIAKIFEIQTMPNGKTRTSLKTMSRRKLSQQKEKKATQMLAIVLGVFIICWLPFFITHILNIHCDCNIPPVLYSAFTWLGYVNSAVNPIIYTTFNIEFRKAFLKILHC
# CONDITION: read-out: cAMP Antagonist
pIC50: −log10 of the molar value.

molecule="O=C(NC(c1ccc(F)cc1)c1ccc(Cl)cc1)C1CCN(CCOc2ccccc2)CC1 (single isomer, unassigned) [Compound 42a]" endpoint=pIC50 result="6.00 to 7.00"

Next up:
[in] Which pIC50 reading was recorded for the molecule O=C(NC(c1ccc(F)cc1)c1ccc(Cl)cc1)C1CCN(CCOc2ccccc2)CC1 (single isomer, unassigned) [Compound 42b] ?
[out] 5.00 to 6.00

* * *

# System: Caco2
# ASSAY_INFO: Caco2 permeability
# Assay type: in vitro ADME
# Parameters: unit not given beside the values
# CONDITION: A-B direction
ENDPOINT: Caco2 A-B

Worked cases, answers included:
compound="O=C(NC(c1ccc(Cl)cc1)c1ccccn1)C1CCN(CCOc2ccc(F)cc2F)CC1 (stereo not drawn) [Compound 115]" quantitative_result=30.4
compound="O=C(NC(c1ccc(F)cc1)c1ccccn1)C1CCN(CCOc2ccccc2Cl)CC1 (stereo not drawn) [Compound 53]" quantitative_result=27.4
compound="O=C(NC(c1ccc(Cl)cc1)c1ccccc1F)C1CCN(CCOc2ccccc2)CC1 (stereo not drawn) [Compound 40]" quantitative_result=4.4
compound="O=C(NC(c1ccc(F)cc1)c1ccccn1)C1CCN(CCOc2ccccc2C(F)(F)F)CC1 (stereo not drawn) [Compound 52]" quantitative_result=12.5
compound="O=C(NC(c1ccc(F)cc1)c1ccccn1)C1CCN(CCOc2ccccc2F)CC1 (stereo not drawn) [Compound 54]" quantitative_result=28.4
compound="O=C(NC(c1ccc(Cl)cc1)c1ccccn1)C1CCN(CCOc2ccccc2)CC1 (stereo not drawn) [Compound 63]" quantitative_result=25.1
compound="COc1cccc(C(NC(=O)C2CCN(CCOc3ccccc3)CC2)c2ccccn2)c1 (stereo not drawn) [Compound 35]" quantitative_result=26.7

1 = O=C(NC(c1ccc(F)cc1)c1ccccn1)C1CCN(CCOc2ccccc2)CC1 (stereo not drawn) [Compound 25]
2 = O=C(NC(c1ccc(Cl)cc1)c1ccccn1)C1CCN(CCOc2ccccc2Cl)CC1 (stereo not drawn) [Compound 66]
[in] // which entry has the larger Caco2 A-B value, 1 or 2 ? # respond with the chosen item's label
[out] 1

* * *

Quick reference for IC50 among some compounds
# MEASURED_ON: human D2R/β-arrestin (Homo sapiens (Human))
# ASSAY_INFO: cell-based
# CONDITION: cAMP Antagonist, CHO-K1 cell line expressing human D2R/β-arrestin; quinpirole used as agonist

Example entries begin here.
compound="O=C(NC(c1ccc(Cl)cc1)c1ccccc1F)C1CCN(CCOc2ccccc2)CC1 (stereo not shown)" endpoint=IC50 result="0.1 to 1 µM"
compound="O=C(NC(c1cccc(OC(F)(F)F)c1)c1ccccn1)C1CCN(CCOc2ccccc2F)CC1 (stereo not shown) [Compound 93]" endpoint=IC50 result="> 30 µM"
compound="Fc1ccc(F)c(OCCN2CCC(CNC(c3ccc(Cl)cc3)c3ccccn3)CC2)c1 (stereo not shown) [Compound 89]" endpoint=IC50 result="0.1 to 1 µM"
compound="CN(CC1CCN(CCOc2ccccc2F)CC1)C(c1ccc2c(c1)OCO2)c1ccccn1 (single isomer, unassigned) [Compound 138b]" endpoint=IC50 result="< 0.1 µM"
compound="COc1cccc(C(c2ccccn2)N(C)CC2CCN(CCOc3ccccc3)CC2)c1 (stereo not shown) [Compound 76]" endpoint=IC50 result="10 to 30 µM"
compound="CN(CC1CCN(CCOc2ccccc2F)CC1)C(c1ccc2c(c1)OCO2)c1ccccn1 (stereo not shown) [Compound 138]" endpoint=IC50 result="> 30 µM"

[in] What value of IC50 has been recorded for this entry: COc1cccc(C(c2ccccn2)N(C)CC2CCN(CCOc3ccccc3F)CC2)c1 (stereo not shown) [Compound 77]
[out] 1 to 10 µM

[in] Could you do the same for COc1cccc(C(NCC2CCN(CCOc3ccccc3F)CC2)c2ccccn2)c1 (stereo not shown) , please?
[out] 0.1 to 1 µM

[in] Also, Fc1ccccc1OCCN1CCC(CN(CC(F)(F)F)C(c2ccc(Cl)cc2)c2ccccn2)CC1 (single isomer, unassigned) [Compound 136a] please.
[out] > 30 µM

[in] # repeat for COc1cccc(C(NC(=O)C2(C)CCN(CCOc3ccccc3)CC2)c2ccccn2)c1 (stereo not shown)
[out] > 30 µM

[in] And then COc1cccc(C(NC(=O)C2CCN(CCOc3ccccc3)CC2)c2cocn2)c1 (stereo not shown) , what is it?
[out] > 30 µM

[in] Another: Clc1ccc(C(c2ccccn2)N2CCC3(CCN(CCOc4ccccc4)CC3)C2)cc1 (stereo not shown) [Compound 105]
[out] > 30 µM

[in] For CN(CC1CCN(CCOc2ccccc2F)CC1)C(c1ccc(Cl)cc1)c1ccccn1 (single isomer, unassigned) [Compound 72b] then?
[out] < 0.1 µM

[in] // same read-out, input: COc1cccc(C(NC(=O)C2CCN(CCOc3ccccc3C(F)(F)F)CC2)c2ccccn2)c1 (stereo not shown)
[out] < 0.1 µM

[in] Thanks! And Fc1ccc(OCCN2CCC(CNC(c3ccc(Cl)cc3)c3ccccn3)CC2)cc1 (stereo not shown) ?
[out] 1 to 10 µM

[in] Next compound up: O=C(NC(c1ccc(F)cc1)c1ccccn1)C1CCN(Cc2nc3ccccc3o2)CC1 (stereo not shown)
[out] > 30 µM

[in] Consider next the compound Clc1ccc(C(c2ccccn2)N2CC3(CCN(CCOc4ccccc4)CC3)C2)cc1 (stereo not shown) in the same way.
[out] > 30 µM

[in] Also Fc1ccccc1C(NCC1CCN(CCOc2ccccc2)CC1)c1ccc(Cl)cc1 (single isomer, unassigned) [Compound 81a] , if possible.
[out] 0.1 to 1 µM

[in] Now give it for CC1(CNC(c2ccc(F)cc2)c2ccccn2)CCN(CCOc2ccccc2C(F)(F)F)CC1 (single isomer, unassigned) [Compound 101a] too.
[out] 0.1 to 1 µM

[in] Further, for O=C(NC(c1ccc(Cl)cc1)c1ccccn1)C1CCN(CCOc2ccccc2)CC1 (single isomer, unassigned) [Compound 63a] ?
[out] > 30 µM

[in] Subsequent entry: `O=C(NC(c1ccc(F)cc1)c1ccc(F)cc1)C1CCN(CCOc2ccccc2Cl)CC1`
[out] < 0.1 µM

[in] Param item: Clc1ccc(C(c2ccccn2)N2CC3CCN(CCOc4ccccc4)CC3C2)cc1 (stereo not shown)
[out] > 30 µM

[in] And what about the compound O=C(NC(c1ccc(Cl)cc1)c1ccccn1)C1CCN(CCOc2cccnc2)CC1 (stereo not shown) ?
[out] > 30 µM

[in] Now consider O=C(NC(c1ccc2c(c1)OC(F)(F)O2)c1ccccn1)C1CCN(CCOc2ccccc2F)CC1 (single isomer, unassigned) [Compound 94a] and answer again.
[out] < 0.1 µM

[in] Another compound to check: Clc1ccc(C(NCC2CCN(CCOc3ccccc3)CC2)c2ccccn2)cc1 (stereo not shown) [Compound 114]
[out] < 0.1 µM

[in] Subsequent entry: Fc1ccc(C(NCC2CCN(CCOc3ccccc3F)CC2)c2ccccn2)cc1 (stereo not shown)
[out] 0.1 to 1 µM

[in] Record: Fc1ccccc1C(NCC1CCN(CCOc2ccccc2)CC1)c1ccc(Cl)cc1 (stereo not shown) [Compound 81]
[out] 0.1 to 1 µM

[in] Also CN(CC1CCN(CCOc2ccccc2F)CC1)C(c1ccc(Cl)cc1)c1ccccn1 (single isomer, unassigned) [Compound 72a] ?
[out] > 30 µM
